TESTED_SYSTEM: UniProt:P34972
Sequence (P34972 whole entry): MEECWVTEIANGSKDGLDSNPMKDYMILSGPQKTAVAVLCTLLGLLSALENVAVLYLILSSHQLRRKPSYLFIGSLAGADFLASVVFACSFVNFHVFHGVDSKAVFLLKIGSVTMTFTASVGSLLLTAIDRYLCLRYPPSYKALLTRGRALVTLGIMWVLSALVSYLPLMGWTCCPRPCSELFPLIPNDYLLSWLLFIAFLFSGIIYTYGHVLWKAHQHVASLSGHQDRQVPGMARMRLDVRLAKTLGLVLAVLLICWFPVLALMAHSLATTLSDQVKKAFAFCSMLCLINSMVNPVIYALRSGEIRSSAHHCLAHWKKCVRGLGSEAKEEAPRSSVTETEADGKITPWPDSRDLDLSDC
PROTOCOL_SUMMARY: cAMP assay at human CB2 receptor
Format: cell-based
STATED_CONDITIONS: EC50 (Potency at Human CB2 determined by cAMP Assay), hCB2R; maximum measurable range 30 μM
ASSAY_ENDPOINT: EC50

1) CCN1CCc2c(c(-c3cc(F)ccc3F)nn2C(=O)N[C@H](C(=O)O)C(C)(C)C)C1 [Compound 82] :: > 30000 nM
2) CNC(=O)[C@@H](NC(=O)n1nc(-c2ccc(F)c(F)c2)c2c1CN(C)CC2)C(C)(C)C [Compound 61] :: < 1000 nM
3) CNC(=O)[C@@H](NC(=O)n1nc(-c2ccc(F)cc2)c2c1CCNC2)C(C)(C)C [Compound 53] :: < 1000 nM
4) COC(=O)[C@@H](NC(=O)n1nc(-c2cc(F)c(F)cc2F)c2c1CCOC2)C(C)(C)C [Compound 34] :: < 1000 nM
5) CNC(=O)[C@@H](NC(=O)n1nc(-c2ccc(F)c(F)c2)c2c1CCOC2)C(C)(C)C [Compound 28] :: < 1000 nM
6) CN1CCc2c(c(-c3ccc(F)c(F)c3)nn2C(=O)N[C@H](CO)C(C)(C)C)C1 [Compound 48] :: < 1000 nM
